Assay: Inhibitory concentration against Escherichia coli heat-labile enterotoxin (LT) binding to ganglioside GD1b was determined by ELISA assay
Note to self: IC50 under 4 µM means 1.0, ties and anything higher get 0.0.

Field: example entries. Status: answers known.
1. O=C(O)[C@H](O)[C@@H](O)[C@H](O)[C@H](O)CO[C@@H]1O[C@H](CO)[C@H](O)[C@H](O)[C@H]1O; 0.0
2. O=C[C@H](O)[C@@H](O)[C@@H](O)[C@H](O)CO [GALACTOSE]; 0.0
3. OC[C@H]1O[C@@H](O[C@@H]2[C@@H](CO)O[C@](O)(CO)[C@H]2O)[C@H](O)[C@@H](O)[C@H]1O [LACTULOSE]; 0.0

Here's the next entry for you.
INPUT: Does the reported IC50 of O=[N+]([O-])c1cccc(O[C@@H]2O[C@H](CO)[C@H](O)[C@H](O)[C@H]2O)c1 stay below 4 µM?
OUTPUT: 1.0
